# Test Description: self-splicing fitness, log relative to wild type (ln ratio); higher = more splicing; Tetrahymena group I intron in knt gene, E. coli kanamycin selection, DiMSum; sequences stand for … in CUCUCU…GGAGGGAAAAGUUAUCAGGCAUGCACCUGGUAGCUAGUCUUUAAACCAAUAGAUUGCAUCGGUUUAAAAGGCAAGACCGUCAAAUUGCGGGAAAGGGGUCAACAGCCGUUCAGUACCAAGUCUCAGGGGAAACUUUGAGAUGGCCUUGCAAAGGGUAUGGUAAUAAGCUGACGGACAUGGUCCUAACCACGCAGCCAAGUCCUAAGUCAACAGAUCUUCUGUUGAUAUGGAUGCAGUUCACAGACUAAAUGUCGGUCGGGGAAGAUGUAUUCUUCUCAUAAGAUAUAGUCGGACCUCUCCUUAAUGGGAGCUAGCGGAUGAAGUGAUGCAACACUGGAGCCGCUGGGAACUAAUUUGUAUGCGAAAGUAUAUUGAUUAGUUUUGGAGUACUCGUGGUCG;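 further: selection with 25 µg/mL kanamycin versus none on LB agar overnight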
# Condition Notes: 30 °C
Assay Readout: self-splicing fitness (ln)
Write no unit; give the number alone.

Some entries whose results are on file:
{"columns": ["Sequence String", "self-splicing fitness (ln)"],
 "data": [
  ["AUCUAGCAAUAUUACGAAUC", -4.05],
  ["UCCGAGCAAUAUUACGAGAG", -2.57],
  ["CCGGAGCAAUAUUACGUGGG", -3.39],
  ["CUGAAGCAAUAUUACGACAC", -2.05],
  ["UCCAAGCAAUAUUACGCUAA", -2.62]
]}

## Task Name the reported self-splicing fitness (ln) value associated with the sequence AAAUAGCAAUAUUACGGACU
## Result 0.0218

## Task Would you mind doing AGCCAGCAAUAUUACGUAUG as well?
## Result -2.08

## Task Would you mind doing CAGAAGCAAUAUUACGCUCU as well?
## Result -4.2

----------
# Test Description: self-splicing fitness, log relative to wild type (ln ratio); higher = more splicing; Tetrahymena group I intron in knt gene, E. coli kanamycin selection, DiMSum; sequences stand for … in CUCUCU…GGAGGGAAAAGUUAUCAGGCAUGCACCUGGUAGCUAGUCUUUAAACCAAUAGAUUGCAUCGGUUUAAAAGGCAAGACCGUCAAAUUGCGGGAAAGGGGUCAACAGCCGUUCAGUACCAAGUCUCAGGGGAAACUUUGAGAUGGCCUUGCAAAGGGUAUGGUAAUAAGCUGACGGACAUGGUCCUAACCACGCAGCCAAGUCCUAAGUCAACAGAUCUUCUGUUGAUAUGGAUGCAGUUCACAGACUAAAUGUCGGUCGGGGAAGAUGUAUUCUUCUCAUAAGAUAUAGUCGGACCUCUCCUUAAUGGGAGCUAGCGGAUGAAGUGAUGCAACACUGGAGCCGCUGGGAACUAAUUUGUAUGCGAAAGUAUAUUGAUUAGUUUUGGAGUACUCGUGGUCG
# Condition Notes: 30 °C
Measured self-splicing fitness (ln) of individual entries
Write no unit; give the number alone.

## Task Name the reported self-splicing fitness (ln) value associated with the sequence CGAUAGCAAUAUUACGUAGU
## Result -3.93

## Task Would you mind doing CAUAAGCAAUAUUACGACAC as well?
## Result -2.18

## Task Would you mind doing GUCAAGCAAUAUUACGAGAU as well?
## Result -5.3

----------
Measured self-splicing fitness (ln) of individual entries
# Test Description: self-splicing fitness, log relative to wild type (ln ratio); higher = more splicing; Tetrahymena group I intron in knt gene, E. coli kanamycin selection, DiMSum; sequences stand for … in CUCUCU…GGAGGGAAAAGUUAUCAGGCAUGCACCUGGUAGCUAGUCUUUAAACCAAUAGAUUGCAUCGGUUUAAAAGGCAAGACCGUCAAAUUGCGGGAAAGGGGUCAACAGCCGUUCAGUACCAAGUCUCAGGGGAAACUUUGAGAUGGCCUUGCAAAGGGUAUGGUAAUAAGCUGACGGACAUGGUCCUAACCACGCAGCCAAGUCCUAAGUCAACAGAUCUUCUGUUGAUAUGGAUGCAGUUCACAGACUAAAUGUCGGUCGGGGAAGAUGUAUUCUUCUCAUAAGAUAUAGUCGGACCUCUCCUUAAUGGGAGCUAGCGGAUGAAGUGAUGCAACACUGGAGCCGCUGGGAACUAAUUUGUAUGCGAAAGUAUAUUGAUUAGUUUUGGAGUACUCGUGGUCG
# Condition Notes: 37 °C
Write no unit; give the number alone.

## Task Name the reported self-splicing fitness (ln) value associated with the sequence GCGCAGCAAUAUUACGUGCC
## Result -2.75

## Task Would you mind doing GACGAGCAAUAUUACGGUGC as well?
## Result -1.47

## Task Would you mind doing CGUAAGCAAUAUUACGGAUG as well?
## Result -0.608

----------
# Test Description: self-splicing fitness, log relative to wild type (ln ratio); higher = more splicing; Tetrahymena group I intron in knt gene, E. coli kanamycin selection, DiMSum; sequences stand for … in CUCUCU…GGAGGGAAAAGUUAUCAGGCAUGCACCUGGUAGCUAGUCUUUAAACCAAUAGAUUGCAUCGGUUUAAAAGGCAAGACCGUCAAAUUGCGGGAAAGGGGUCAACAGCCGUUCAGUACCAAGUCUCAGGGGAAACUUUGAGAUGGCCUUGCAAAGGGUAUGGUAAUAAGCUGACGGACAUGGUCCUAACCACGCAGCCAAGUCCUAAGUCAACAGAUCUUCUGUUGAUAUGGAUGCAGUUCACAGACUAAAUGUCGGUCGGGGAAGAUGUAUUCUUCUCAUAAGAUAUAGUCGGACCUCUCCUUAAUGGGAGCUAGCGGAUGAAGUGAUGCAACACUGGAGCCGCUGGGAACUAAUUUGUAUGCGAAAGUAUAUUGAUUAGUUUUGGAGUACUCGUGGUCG
# Condition Notes: 37 °C
Assay Readout: self-splicing fitness (ln)

{"columns": ["Sequence String", "Endpoint Result"],
 "data": [
  ["ACAUAGCAAUAUUACGAUAC", -2.2],
  ["CCUAAGCAAUAUUACGACAC", -2.03]
]}

## Task Name the reported self-splicing fitness (ln) value associated with the sequence GCUGAGCAAUAUUACGACCU
## Result -1.15

## Task Would you mind doing AAACAGCAAUAUUACGGGCG as well?
## Result -1.41

## Task Would you mind doing ACAGAGCAAUAUUACGCGAU as well?
## Result -3.29

## Task Would you mind doing CCGUAGCAAUAUUACGGUGC as well?
## Result -1.93

## Task Would you mind doing UCAUAGCAAUAUUACGUACA as well?
## Result -1.46

## Task Would you mind doing UAAUAGCAAUAUUACGGGGC as well?
## Result -2.84

## Task Would you mind doing ACCUAGCAAUAUUACGUCGG as well?
## Result -1.11

## Task Would you mind doing UUUCAGCAAUAUUACGCCGA as well?
## Result -0.923

## Task Would you mind doing CAUGAGCAAUAUUACGGGGA as well?
## Result -3.03

## Task Would you mind doing UGUUAGCAAUAUUACGGCCU as well?
## Result 0.286

## Task Would you mind doing AACCAGCAAUAUUACGACGG as well?
## Result -0.974

## Task Would you mind doing UCCGAGCAAUAUUACGGGUC as well?
## Result -2.45

## Task Would you mind doing UCACAGCAAUAUUACGGCUA as well?
## Result -0.219

## Task Would you mind doing AGAGAGCAAUAUUACGAGAG as well?
## Result -2.3

## Task Would you mind doing AGUAAGCAAUAUUACGAAGC as well?
## Result -3.5

## Task Would you mind doing GUUGAGCAAUAUUACGUGGA as well?
## Result -2.45

## Task Would you mind doing AAGGAGCAAUAUUACGCAGG as well?
## Result -2.22

## Task Would you mind doing CGUAAGCAAUAUUACGCGGC as well?
## Result -2.23

## Task Would you mind doing AAUAAGCAAUAUUACGUGGC as well?
## Result -2.82

----------
# Test Description: self-splicing fitness, log relative to wild type (ln ratio); higher = more splicing; Tetrahymena group I intron in knt gene, E. coli kanamycin selection, DiMSum; sequences stand for … in CUCUCU…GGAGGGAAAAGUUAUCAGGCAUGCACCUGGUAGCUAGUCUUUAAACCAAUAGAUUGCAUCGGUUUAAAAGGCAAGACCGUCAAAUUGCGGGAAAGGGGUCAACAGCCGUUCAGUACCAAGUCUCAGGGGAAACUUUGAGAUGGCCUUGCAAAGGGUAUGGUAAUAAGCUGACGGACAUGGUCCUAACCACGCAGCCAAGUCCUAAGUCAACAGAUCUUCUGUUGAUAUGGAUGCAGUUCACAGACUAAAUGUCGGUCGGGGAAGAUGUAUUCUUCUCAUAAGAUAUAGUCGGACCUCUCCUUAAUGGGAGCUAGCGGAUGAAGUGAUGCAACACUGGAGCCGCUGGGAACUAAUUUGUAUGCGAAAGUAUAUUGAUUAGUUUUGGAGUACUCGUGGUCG
# Condition Notes: 30 °C
We'd kindly ask you to apply these self-splicing fitness (ln) classes: bottom (below -3), middle (-3 to below -1), top (-1 or more)

{"columns": ["Sequence String", "Class Name"],
 "data": [
  ["UGCCAGCAAUAUUACGACUA", "top"]
]}

## Task Pick a category. Item: UGGUAGCAAUAUUACGCAAU
## Result middle

## Task Would you mind doing GACCAGCAAUAUUACGAGAC as well?
## Result top
